# TGT: LNCaP type mutant androgen receptor (AR) (Homo sapiens, UniProt P10275, T878A)
# Sequence (P10275 1-920 T878A): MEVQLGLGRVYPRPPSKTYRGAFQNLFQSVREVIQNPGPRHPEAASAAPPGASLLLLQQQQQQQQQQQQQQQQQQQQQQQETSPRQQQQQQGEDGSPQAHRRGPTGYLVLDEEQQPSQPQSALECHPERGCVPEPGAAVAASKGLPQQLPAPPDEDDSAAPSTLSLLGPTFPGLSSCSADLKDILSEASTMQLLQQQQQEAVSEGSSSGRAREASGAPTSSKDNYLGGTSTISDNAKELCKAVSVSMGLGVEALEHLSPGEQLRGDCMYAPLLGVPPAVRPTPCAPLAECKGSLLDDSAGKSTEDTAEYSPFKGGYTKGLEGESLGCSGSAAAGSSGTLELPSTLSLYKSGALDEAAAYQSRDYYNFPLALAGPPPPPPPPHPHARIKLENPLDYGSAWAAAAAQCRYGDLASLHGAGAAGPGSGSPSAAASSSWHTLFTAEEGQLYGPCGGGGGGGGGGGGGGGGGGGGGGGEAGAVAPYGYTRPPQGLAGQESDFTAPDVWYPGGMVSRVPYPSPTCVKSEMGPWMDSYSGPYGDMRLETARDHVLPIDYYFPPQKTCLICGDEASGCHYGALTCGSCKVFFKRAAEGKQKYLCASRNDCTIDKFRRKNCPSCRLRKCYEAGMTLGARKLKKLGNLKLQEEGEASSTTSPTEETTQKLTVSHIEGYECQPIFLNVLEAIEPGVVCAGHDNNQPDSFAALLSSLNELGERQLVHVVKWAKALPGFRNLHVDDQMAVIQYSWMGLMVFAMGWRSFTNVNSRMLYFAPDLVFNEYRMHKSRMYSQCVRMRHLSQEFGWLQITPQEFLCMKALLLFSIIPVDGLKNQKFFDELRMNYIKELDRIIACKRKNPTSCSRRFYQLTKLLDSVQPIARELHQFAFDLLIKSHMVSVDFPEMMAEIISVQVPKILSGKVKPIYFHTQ
# METHOD NOTES: AR-binding inhibition test, LNCaP type (radio-labeled Mibolerone displacement)
# PARTICULARS: compound 1 μM; 3 nM radio-labeled Mibolerone; 4° C., 3 hours; dextran/charcoal method; read-out: Inhibitory rate (%) at 1 μM, LNCaP type
ASSAY ENDPOINT: inhibition at 1 µM (%)

>>> test_value("Cc1nn(Cc2ccc(C(=O)NCC(C)(C)O)cc2)c(C)c1-c1ccc(C#N)c(Cl)c1 [Example 282]")
54
>>> test_value("Cc1nnc(-c2ccc(Cn3nc(C)c(-c4ccc(C#N)c(Cl)c4)c3C)cc2)o1 [Example 286]")
89
>>> test_value("Cc1nn(Cc2ccc(C(=O)NC3CC3)nc2)c(C)c1-c1ccc(C#N)c(Cl)c1 [Example 310]")
73
>>> test_value("Cc1nn(Cc2ccc(C(N)=O)cc2)c(C)c1-c1ccc(C#N)c(Cl)c1F [Example 337]")
72

====

This section presents molecules with their documented inhibition at 1 µM values.
# TGT: mutant AR (W741C) (Homo sapiens, UniProt P10275, W742C)
# Construct: expressed in transfected cells; host or cells: Cos-7
# METHOD NOTES: AR transcription inhibition test (luciferase reporter in Cos-7 cells)
# Assay type: cell-based
# PARTICULARS: compound 1 μM, 0.1 μM DHT, luciferase activity after 24 hr, relative to control (0.1 μM DHT), read-out: Inhibitory rate (%) of mutant AR at 1 μM
# Description: Cos-7 cells (5,000,000 cells) were inoculated to a flask, and incubated in a culture medium (DMEM+10% Dextran Charcoal (DCC)−Fetal Bovine Serum (FBS) and 2 mM glutamine) for 24 hours. […] After further culture for 24 hr, the luciferase activity was measured, and the AR transcription inhibitory activity of the compound was examined.
ASSAY ENDPOINT: inhibition at 1 µM (%)

>>> test_value("Cc1nn(Cc2ccc(C(=O)NC3CC3)nc2)c(C)c1-c1ccc(C#N)c(Cl)c1")
72
>>> test_value("Cc1nn(Cc2ccc(C(=O)NC3CC3)cc2)c(C)c1-c1ccc(C#N)c(Cl)c1")
36
>>> test_value("Cc1nn(Cc2ccc(C(N)=O)nc2)c(C)c1-c1ccc(C#N)c(Cl)c1")
32
>>> test_value("Cc1nn(Cc2ccc(F)c(C(N)=O)c2)c(C)c1-c1ccc(C#N)c(Cl)c1")
92
>>> test_value("Cc1nn(Cc2cccc(C(N)=O)c2)c(C)c1-c1ccc(C#N)c(Cl)c1")
31
>>> test_value("Cc1nnc(-c2ccc(Cn3nc(C)c(-c4ccc(C#N)c(Cl)c4)c3C)cc2)o1")
67
>>> test_value("CNC(=O)c1ccc(Cn2nc(C)c(-c3ccc(C#N)c(Cl)c3)c2C)cn1")
38
>>> test_value("Cc1nn(Cc2ccc(C(N)=O)cc2)c(C)c1-c1ccc(C#N)c(Cl)c1")
19
>>> test_value("Cc1nn(Cc2ccc(S(N)(=O)=O)cc2)c(C)c1-c1ccc(C#N)c(Cl)c1")
24
>>> test_value("Cc1nn(Cc2ccc(C(=O)NCC(C)(C)O)cc2)c(C)c1-c1ccc(C#N)c(Cl)c1")
28
>>> test_value("Cc1nn(Cc2ccc(C(N)=O)nc2)c(C)c1-c1ccc(C#N)c(C(F)(F)F)c1")
17
>>> test_value("Cc1nn(Cc2ccc(C(N)=O)cc2)c(C)c1-c1ccc(C#N)c(Cl)c1F")
36

# credit: patent US20090270359A1
